- System: PSMA-expressing LNCaP tumor xenografts
- assay.notes: Ex vivo biodistribution in LNCaP tumor-bearing mice
- applied.conditions: LNCaP tumor-bearing mice, 1 h post injection, mean ± SD, n = 4
observable: Muscle uptake

compound	endpoint.value
N#C[C@@H]1CC(F)(F)CN1C(=O)CNC(=O)c1ccnc2ccc(OCCCc3cn(CC(=O)N[C@@H](CCCCNC(=O)CN4CCN(CC(=O)[O-])CCN(CC(=O)[O-])CCN(CC(=O)[O-])CC4)C(=O)NCC(=O)NC[C@H]4CC[C@H](C(=O)N[C@@H](Cc5c6ccccc6cc6ccccc56)C(=O)NCCCC[C@H](NC(=O)N[C@@H](CCC(=O)O)C(=O)O)C(=O)O)CC4)nn3)cc12.[68Ga+3] [[^68Ga]Ga-AV01017]	1.91 ± 0.43 %ID/g

* * *

- Tested on: FAP-expressing HEK293T:hFAP tumor xenografts
- assay.notes: Ex vivo biodistribution in HEK293T:hFAP tumor-bearing mice
- applied.conditions: 1 h post injection, mean ± SD, n = 4
Bone uptake listing for selected compounds.

compound	Bone uptake (%ID/g)
N#C[C@@H]1CC(F)(F)CN1C(=O)CNC(=O)c1ccnc2ccc(OCc3cn(CC(=O)N[C@@H](CCCCNC(=O)CN4CCN(CC(=O)[O-])CCN(CC(=O)[O-])CCN(CC(=O)[O-])CC4)C(=O)NCC(=O)NC[C@H]4CC[C@H](C(=O)N[C@@H](Cc5c6ccccc6cc6ccccc56)C(=O)NCCCC[C@H](NC(=O)N[C@@H](CCC(=O)O)C(=O)O)C(=O)O)CC4)nn3)cc12.[68Ga+3] [[^68Ga]Ga-AV01038]	3.03
N#C[C@@H]1CC(F)(F)CN1C(=O)CNC(=O)c1ccnc2ccc(-c3cn(CC(=O)N[C@@H](CCCCNC(=O)CN4CCN(CC(=O)[O-])CCN(CC(=O)[O-])CCN(CC(=O)[O-])CC4)C(=O)NCC(=O)NC[C@H]4CC[C@H](C(=O)N[C@@H](Cc5c6ccccc6cc6ccccc56)C(=O)NCCCC[C@H](NC(=O)N[C@@H](CCC(=O)O)C(=O)O)C(=O)O)CC4)nn3)cc12.[68Ga+3] [[^68Ga]Ga-AV01030]	3.59
N#C[C@@H]1CC(F)(F)CN1C(=O)CNC(=O)c1ccnc2ccc(OCCCN3CCN(C(=O)CN4CCN(CC(=O)[O-])CCN(CC(=O)[O-])CCN(CC(=O)[O-])CC4)CC3)cc12.[68Ga+3] [[^68Ga]Ga-FAPI-04, reference compound]	3.36
N#C[C@@H]1CC(F)(F)CN1C(=O)CNC(=O)c1ccnc2ccc(OCCCc3cn(CC(=O)N[C@@H](CCCCNC(=O)CN4CCN(CC(=O)[O-])CCN(CC(=O)[O-])CCN(CC(=O)[O-])CC4)C(=O)NCC(=O)NC[C@H]4CC[C@H](C(=O)N[C@@H](Cc5c6ccccc6cc6ccccc56)C(=O)NCCCC[C@H](NC(=O)N[C@@H](CCC(=O)O)C(=O)O)C(=O)O)CC4)nn3)cc12.[68Ga+3] [[^68Ga]Ga-AV01017]	5.26
O=C([O-])CN1CCN(CC(=O)[O-])CCN(CC(=O)NC[C@H]2CC[C@H](C(=O)N[C@@H](Cc3c4ccccc4cc4ccccc34)C(=O)NCCCC[C@H](NC(=O)N[C@@H](CCC(=O)O)C(=O)O)C(=O)O)CC2)CCN(CC(=O)[O-])CC1.[68Ga+3] [[^68Ga]Ga-HTK03041, reference compound]	0.42
